# melting point annotations

MOLECULE	melting point
CCOC(=O)OC1=C(c2c(C)cc(C)c(Br)c2C)C(=O)OC12CCN(OC)CC2 [P1.39]	52 to 54 °C
CCOC(=O)OC1=C(c2cc(C)ccc2OC)C(=O)OC12CCN(OC)CC2 [P1.16]	81 to 83 °C
CCOC(=O)OC1=C(c2c(Cl)cc(Br)cc2Cl)C(=O)OC12CCN(OC)CC2 [P1.30]	122 to 125 °C
CCOC(=O)OC1=C(c2c(C)cccc2C)C(=O)OC12CCN(OC)CC2 [P1.40]	93 to 94 °C
